- assayDetails: Cell-based coincidence reporter assay to measure PMP22 gene transcription in S16 Pmp22-F2sN cells - Primary screen
- details: S16 Pmp22-F2sN Schwann cells (luciferase reporters placed in the Pmp22 gene), FLuc/NLuc coincidence luminescence, 24 h; series mostly up to 57.5 µM
- Excerpt: Assay Provider: Jim Inglese Ph.D. National Center for Advancing Translational Science, National Institutes of Health, Rockville, MD CMT is a heterogeneous group of neurological disorders that affect approximately 1 in 2,500 people. In particular, the most common form of CMT, CMT1A is genetically linked to the duplication of the PMP22 gene which leads to Schwann cell overexpression, thus manifesting itself as a typical case of dose-sensitive diseases. […]
Among all 43,000 compounds or so, about 830 (1.9%) were called active. Roughly 30% stayed inconclusive and do not appear here. Rule for the calls: active = clear falling dose curves in both reporters; inconclusive = both reporters move, but less clearly or upward; inactive = either reporter flat; the % is the NLuc reporter signal. The sample holds actives, similar compounds and a random draw of the others, so the mix is not that of the screen.
Your answer must be one of the following: active, inactive

Consider the following illustrative entries.
CCS(=O)(=O)c1ncc(N(Cc2ccc(F)cc2)Cc2ccco2)c(C(=O)Nc2cc(C)ccc2C)n1 inactive
O=C(CSc1nnc(-c2ccccc2F)o1)Nc1cccc(C(F)(F)F)c1 inactive
CCSc1ncc(Cl)c(C(=O)Nc2cc(C)ccc2C)n1 inactive
CCCS(=O)(=O)c1ncc(Cl)c(C(=O)Nc2scc(-c3ccccc3)c2C(=O)OCC)n1 active
Cc1cc(C)cc(NC(=O)Cc2csc(C)n2)c1 inactive
Cc1cc(C)c(NC(=O)CSc2nc3ccncc3[nH]2)c(C)c1 inactive
CCOC(=O)c1scc(-c2ccccc2)c1S(=O)(=O)Nc1ccccc1F inactive
Fc1cccc(-n2ncc3c2ncn2nc(-c4ccccc4Cl)nc32)c1 inactive
CCOC(=O)c1ccc(NC(=O)c2nc(SCc3ccc(F)cc3)ncc2Cl)cc1 inactive

Any idea what this test logged for `COc1ccc(OC)c(-n2nnc(-c3nc(-c4cc(OC)c(OC)c(OC)c4)no3)c2C)c1` ?
inactive
